# study system: HiBit-BRG1 fusion protein (Homo sapiens, UniProt P51532)
# Construct: expressed in transfected cells
# Sequence (P51532 whole entry, the tested form may be a part): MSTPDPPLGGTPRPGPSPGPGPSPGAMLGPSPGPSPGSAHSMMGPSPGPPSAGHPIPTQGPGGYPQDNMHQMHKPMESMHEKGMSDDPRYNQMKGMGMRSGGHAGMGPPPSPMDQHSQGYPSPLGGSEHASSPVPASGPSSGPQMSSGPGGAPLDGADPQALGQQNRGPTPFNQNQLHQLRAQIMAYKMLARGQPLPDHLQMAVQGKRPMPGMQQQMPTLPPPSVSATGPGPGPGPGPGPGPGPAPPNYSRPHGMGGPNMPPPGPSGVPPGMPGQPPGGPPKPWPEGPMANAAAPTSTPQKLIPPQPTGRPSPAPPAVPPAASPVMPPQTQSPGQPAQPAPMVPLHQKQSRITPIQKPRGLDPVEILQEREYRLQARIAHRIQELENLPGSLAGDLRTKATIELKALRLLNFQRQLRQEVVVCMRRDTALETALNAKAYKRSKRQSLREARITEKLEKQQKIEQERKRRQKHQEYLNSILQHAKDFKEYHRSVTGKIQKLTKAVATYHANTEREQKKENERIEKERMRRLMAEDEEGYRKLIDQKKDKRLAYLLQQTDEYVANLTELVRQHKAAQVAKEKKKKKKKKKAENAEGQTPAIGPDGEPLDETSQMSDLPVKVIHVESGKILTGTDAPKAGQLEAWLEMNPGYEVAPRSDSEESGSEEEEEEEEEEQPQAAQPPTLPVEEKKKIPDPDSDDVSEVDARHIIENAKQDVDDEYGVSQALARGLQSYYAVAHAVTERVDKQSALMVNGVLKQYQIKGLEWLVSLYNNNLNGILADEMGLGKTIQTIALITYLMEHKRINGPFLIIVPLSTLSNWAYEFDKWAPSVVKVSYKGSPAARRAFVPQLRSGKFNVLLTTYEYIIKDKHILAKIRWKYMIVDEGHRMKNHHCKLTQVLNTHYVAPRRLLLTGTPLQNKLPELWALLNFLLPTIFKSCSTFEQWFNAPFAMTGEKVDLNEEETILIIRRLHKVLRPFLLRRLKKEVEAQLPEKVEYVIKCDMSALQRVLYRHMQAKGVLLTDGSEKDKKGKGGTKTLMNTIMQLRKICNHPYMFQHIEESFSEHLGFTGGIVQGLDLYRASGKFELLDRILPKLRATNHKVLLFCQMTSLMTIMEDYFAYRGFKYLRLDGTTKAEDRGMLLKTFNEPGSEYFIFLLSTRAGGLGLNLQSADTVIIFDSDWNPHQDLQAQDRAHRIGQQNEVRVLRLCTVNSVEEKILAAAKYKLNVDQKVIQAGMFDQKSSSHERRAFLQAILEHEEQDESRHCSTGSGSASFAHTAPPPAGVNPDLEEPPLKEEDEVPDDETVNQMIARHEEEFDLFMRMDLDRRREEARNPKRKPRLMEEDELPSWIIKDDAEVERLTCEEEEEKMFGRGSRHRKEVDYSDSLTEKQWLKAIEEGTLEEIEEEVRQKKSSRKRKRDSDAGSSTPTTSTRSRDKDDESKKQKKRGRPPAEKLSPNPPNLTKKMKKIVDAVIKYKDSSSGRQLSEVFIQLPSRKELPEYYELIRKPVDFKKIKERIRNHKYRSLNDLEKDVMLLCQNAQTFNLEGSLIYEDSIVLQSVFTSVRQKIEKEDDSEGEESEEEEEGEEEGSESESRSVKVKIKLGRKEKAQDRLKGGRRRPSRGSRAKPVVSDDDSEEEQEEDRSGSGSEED
# method: HiBiT-BRG1 cell-based degradation assay (Nano-Glo HiBiT Lytic Detection, 24 h)
# experimental context: stable HeLa cell line expressing HiBit-BRG1 and LgBit, read-out: BRMG1 HiBit Degradation IC50
measured endpoint: DC50

Query: Param readout= DC50; system= HiBit-BRG1 fusion protein (Homo sapiens, UniProt P51532); entry= Cc1nc(N2CCC(c3sc4nnc(-c5ccccc5O)cc4c3C)CC2)ccc1-c1cc([C@H](C(=O)N2C[C@H](O)C[C@H]2C(=O)N[C@@H](C)c2ccc(-c3scnc3C)cc2)C(C)C)on1 ; returns value.
Reply: > 10 nM

Query: Next molecule: Cc1ncsc1-c1ccc([C@H](C)NC(=O)[C@@H]2C[C@@H](O)CN2C(=O)[C@@H](c2cc(C#Cc3sc4nnc(-c5ccccc5O)cc4c3C)no2)C(C)C)cc1 (single isomer, unassigned)
Reply: > 1000 nM

Query: Next molecule: Cc1ncsc1-c1ccc([C@H](C)NC(=O)[C@@H]2C[C@@H](O)CN2C(=O)C(c2cc([C@H]3CC[C@H](c4cnc(N5CCC(c6sc7nnc(-c8ccccc8O)cc7c6C)CC5)nc4)CC3)no2)C(C)C)cc1 (stereo partly drawn)
Reply: > 10 nM

Query: Next molecule: Cc1ncsc1-c1ccc([C@H](C)NC(=O)[C@@H]2C[C@@H](O)CN2C(=O)[C@@H](c2cc(-c3cnc(N4CCC(c5cc6cc(-c7ccccc7O)nnc6s5)CC4)nc3)no2)C(C)C)cc1
Reply: > 1000 nM

Query: Next molecule: Cc1ncsc1-c1ccc([C@H](C)NC(=O)[C@@H]2C[C@@H](O)CN2C(=O)[C@@H](c2cc(-c3ccnc(N4CC[C@H](c5sc6nnc(-c7ccccc7O)cc6c5C)C4)n3)no2)C(C)C)cc1
Reply: > 1000 nM

Query: Next molecule: Cc1ncsc1-c1ccc([C@H](C)NC(=O)[C@@H]2C[C@@H](O)CN2C(=O)[C@@H](c2cc(C3CCN(c4ncc(-c5sc6nnc(-c7ccccc7O)cc6c5C)cn4)CC3)no2)C(C)C)cc1
Reply: > 1000 nM

Query: Next molecule: Cc1cc(N2CCC(c3sc4nnc(-c5ccccc5O)cc4c3C)CC2)ncc1-c1cc([C@H](C(=O)N2C[C@H](O)C[C@H]2C(=O)N[C@@H](C)c2ccc(-c3scnc3C)cc2)C(C)C)on1
Reply: > 1000 nM

Query: Next molecule: Cc1ncsc1-c1ccc([C@H](C)NC(=O)[C@@H]2C[C@@H](O)CN2C(=O)[C@@H](c2cc(-c3cnc(N4CC[C@H](c5cc6cc(-c7ccccc7O)nnc6s5)C4)nc3)no2)C(C)C)cc1
Reply: > 1000 nM

Query: Next molecule: Cc1ncsc1-c1ccc([C@H](C)NC(=O)[C@@H]2C[C@@H](O)CN2C(=O)[C@@H](c2cc(-c3c(C)nc(N4CCC(c5sc6nnc(-c7ccccc7O)cc6c5C)CC4)nc3C)no2)C(C)C)cc1
Reply: > 10 nM

Query: Next molecule: Cc1ncsc1-c1ccc([C@H](C)NC(=O)[C@@H]2C[C@@H](O)CN2C(=O)[C@@H](c2cc([C@H]3CC[C@@H](c4cnc(N5CCC(c6sc7nnc(-c8ccccc8O)cc7c6C)CC5)nc4)CC3)no2)C(C)C)cc1 (single isomer, unassigned)
Reply: > 1000 nM

Query: Next molecule: Cc1ncsc1-c1ccc([C@H](C)NC(=O)[C@@H]2C[C@@H](O)CN2C(=O)C(c2cc(Oc3nccc(N4CCC(c5sc6nnc(-c7ccccc7O)cc6c5C)CC4)n3)no2)C(C)C)cc1 (single isomer, unassigned)
Reply: > 1000 nM

Query: Next molecule: Cc1ncsc1-c1ccc([C@H](C)NC(=O)[C@@H]2C[C@@H](O)CN2C(=O)[C@@H](c2cc(-c3cnc(N4CCC(c5sc6nnc(-c7ccccc7O)cc6c5C)[C@@H](C)C4)nc3)no2)C(C)C)cc1 (stereo in doubt)
Reply: > 1000 nM

Query: Next molecule: Cc1ncsc1-c1ccc([C@H](C)NC(=O)[C@@H]2C[C@@H](O)CN2C(=O)[C@@H](c2cc(-c3cnc(N4C[C@H]5C[C@@H](C4)[C@H]5c4cc5cc(-c6ccccc6O)nnc5s4)nc3)no2)C(C)C)cc1
Reply: > 1000 nM

Query: Next molecule: Cc1ncsc1-c1ccc([C@H](C)NC(=O)[C@@H]2C[C@@H](O)CN2C(=O)[C@@H](c2cc(N3CCC4(CC3)CC(c3cc5nnc(-c6ccccc6O)cc5s3)C4)no2)C(C)C)cc1
Reply: > 100 nM

Query: Next molecule: Cc1ncsc1-c1ccc([C@H](C)NC(=O)[C@@H]2C[C@@H](O)CN2C(=O)[C@@H](c2cc(-c3ccnc(N4CCC(c5sc6nnc(-c7ccccc7O)cc6c5C)CC4)c3)no2)C(C)C)cc1
Reply: > 10 nM

Query: Next molecule: Cc1ncsc1-c1ccc([C@H](C)NC(=O)[C@@H]2C[C@@H](O)CN2C(=O)[C@@H](c2cc(-c3cnc(N4C[C@H]5C[C@@H]4C[C@H]5c4cc5cc(-c6ccccc6O)nnc5s4)nc3)no2)C(C)C)cc1
Reply: > 1000 nM

Query: Next molecule: Cc1ncsc1-c1ccc([C@H](C)NC(=O)[C@@H]2C[C@@H](O)CN2C(=O)[C@@H](c2cc(N3CC4(CCC(c5sc6nnc(-c7ccccc7O)cc6c5C)CC4)C3)no2)C(C)C)cc1
Reply: > 10 nM

Query: Next molecule: Cc1ncsc1-c1ccc([C@H](C)NC(=O)[C@@H]2C[C@@H](O)CN2C(=O)[C@@H](c2cc(-c3cnc(N4CCC(O)(c5sc6nnc(-c7ccccc7O)cc6c5C)CC4)nc3)no2)C(C)C)cc1
Reply: > 1000 nM

These entries and their values trace back to patent US20250304596A1.
